molecular target: recombinant human somatic ACE (Homo sapiens); experiment: ACE activity, cleavage of fluorogenic peptide substrate; conditions: fluorogenic substrate 10 μM, 50 mM sodium borate buffer pH 8.2, 37° C.
Sequence (P12821 30-1306): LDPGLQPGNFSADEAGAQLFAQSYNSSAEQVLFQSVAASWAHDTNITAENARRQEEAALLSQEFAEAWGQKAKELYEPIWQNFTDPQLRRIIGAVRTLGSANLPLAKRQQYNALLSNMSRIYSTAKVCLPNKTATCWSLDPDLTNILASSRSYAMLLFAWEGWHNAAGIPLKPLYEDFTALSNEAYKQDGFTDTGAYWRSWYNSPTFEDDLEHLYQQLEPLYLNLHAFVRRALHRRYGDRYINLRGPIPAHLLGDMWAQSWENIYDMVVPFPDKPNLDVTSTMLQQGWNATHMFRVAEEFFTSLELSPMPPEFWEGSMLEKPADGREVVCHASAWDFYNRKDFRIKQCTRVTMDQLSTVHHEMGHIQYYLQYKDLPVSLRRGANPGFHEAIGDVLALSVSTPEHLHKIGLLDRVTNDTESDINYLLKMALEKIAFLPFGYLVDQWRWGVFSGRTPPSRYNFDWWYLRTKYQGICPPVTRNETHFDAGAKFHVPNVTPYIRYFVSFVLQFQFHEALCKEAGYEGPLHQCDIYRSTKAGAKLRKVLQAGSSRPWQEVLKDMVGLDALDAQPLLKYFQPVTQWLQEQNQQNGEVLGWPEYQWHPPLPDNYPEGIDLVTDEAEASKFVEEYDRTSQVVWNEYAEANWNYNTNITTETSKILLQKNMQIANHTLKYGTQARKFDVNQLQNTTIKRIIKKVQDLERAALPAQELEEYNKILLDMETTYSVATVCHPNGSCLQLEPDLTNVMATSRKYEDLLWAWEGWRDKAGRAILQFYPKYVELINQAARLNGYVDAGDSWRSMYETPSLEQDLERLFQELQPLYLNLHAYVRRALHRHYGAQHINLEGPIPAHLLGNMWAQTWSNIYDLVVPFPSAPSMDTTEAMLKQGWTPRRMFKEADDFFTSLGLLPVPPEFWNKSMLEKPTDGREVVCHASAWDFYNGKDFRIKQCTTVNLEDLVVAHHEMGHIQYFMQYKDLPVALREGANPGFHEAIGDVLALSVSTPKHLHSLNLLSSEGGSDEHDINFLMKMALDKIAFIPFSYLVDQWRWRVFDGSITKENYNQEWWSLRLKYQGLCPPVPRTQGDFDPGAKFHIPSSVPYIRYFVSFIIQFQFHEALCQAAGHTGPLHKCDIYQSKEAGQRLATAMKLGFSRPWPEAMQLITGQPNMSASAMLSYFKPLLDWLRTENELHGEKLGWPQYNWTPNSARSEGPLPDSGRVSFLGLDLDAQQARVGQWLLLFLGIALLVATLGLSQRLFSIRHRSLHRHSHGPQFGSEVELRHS
measured_quantity: IC50 (µM)
Express it in µM; write the number only.

Reported IC50 (recombinant human somatic ACE (Homo sapiens)) for entry CC(C(=O)N1CCCC1C(=O)O)C1CCSS1 (stereo not shown) is 64
